Kindly supply the reported log10 of IC50 values for the records listed here.
// do not treat as linear: log10 of IC50, unit nM

The compound Cc1cc(N)nc(-c2cc3ncnc4c3c(c2Cl)OCCN4[C@@H](C)c2cncc(N)c2)c1C(F)(F)F , tested on KRas (Homo sapiens (Human), UniProt P01116), showed log10 of IC50 of 4.00

Hey, KRas (Homo sapiens (Human), UniProt P01116) data for Cc1cc(N)nc(-c2c(Cl)c3c4c(nc(OCCC5CCCN5C)nc4c2F)N([C@H](C)c2cccnc2N)CCO3)c1C(F)(F)F (stereo partly shown) : log10 of IC50 came out at -0.69

Assay KRas (Homo sapiens (Human), UniProt P01116), sample Cc1cc(N)nc(-c2c(Cl)c3c4c(nc(OC[C@@H]5C[C@@]6(CN5C)CC6(F)F)nc4c2F)N([C@H](C)c2nccnc2N)CCO3)c1C(F)(F)F (atropisomer, axis not shown) [Example 171b] , log10 of IC50 read: 3.32

// returns log10 of IC50 for Cc1cc(N)nc(-c2c(Cl)c3c4c(nc(OC[C@@]56CCN5CC(F)(F)C6)nc4c2F)N([C@H](C)c2nccnc2N)CCO3)c1C(F)(F)F (single isomer, unassigned) [Example 162c] with KRas (Homo sapiens (Human), UniProt P01116); value = 2.92

KRas (Homo sapiens (Human), UniProt P01116) data for Cc1cc(N)nc(-c2c(Cl)c3c4c(nc(OC[C@@]56CCCN5CC(F)(F)C6)nc4c2F)N([C@H](C)c2nccnc2N)CCO3)c1C(F)(F)F (atropisomer, axis not shown) [Example 165b] ; its log10 of IC50: 3.30

# Cc1cc(N)nc(-c2c(Cl)c3c4c(nc(OC[C@@H]5C[C@@]6(CN5C)CC6(F)F)nc4c2F)N([C@H](C)c2nccnc2N)CCO3)c1C(F)(F)F (atropisomer, axis not shown) [Example 171a] with KRas (Homo sapiens (Human), UniProt P01116): log10 of IC50 is 0.34

So the reported log10 of IC50 for Cc1cc(N)nc(-c2c(Cl)c3c4c(nc(OC[C@H]5C[C@@H]6COCCN65)nc4c2F)N([C@H](C)c2cccnc2N)CCO3)c1C(F)(F)F (atropisomer, axis not shown) [Example 99b] , on KRas (Homo sapiens (Human), UniProt P01116), turned out to be -1.13

# log10 of IC50 measured on KRas (Homo sapiens (Human), UniProt P01116) for item Cc1cc(N)nc(-c2c(Cl)c3c4c(nc(OC[C@@H]5CC[C@H]6CN(S(C)(=O)=O)CCN56)nc4c2F)N([C@H](C)c2cccnc2N)CCO3)c1C(F)(F)F (atropisomer, axis not shown; (aS)) [Example 125a] = -0.66

Let me check: Cc1cc(N)nc(-c2c(Cl)c3c4c(nc(OC[C@@]56CCCN5C[C@H](F)C6)nc4c2F)N(C)CCO3)c1C(F)(F)F (single isomer, unassigned) [Example 41b] , system KRas (Homo sapiens (Human), UniProt P01116), measured log10 of IC50 is 3.81

// compound Cc1cc(N)nc(-c2c(Cl)c3c4c(nc(OC[C@@]56CCCN5CCOC6)nc4c2F)N([C@H](C)c2cccnc2N)CCO3)c1C(F)(F)F (atropisomer, axis not shown) [Example 128b] , assay KRas (Homo sapiens (Human), UniProt P01116), log10 of IC50 value: -0.33

----------
# TARGET_OF_ASSAY: KRas (Homo sapiens (Human), UniProt P01116)
# Sequence (P01116-2 other isoform, or with tags, fused parts or gaps): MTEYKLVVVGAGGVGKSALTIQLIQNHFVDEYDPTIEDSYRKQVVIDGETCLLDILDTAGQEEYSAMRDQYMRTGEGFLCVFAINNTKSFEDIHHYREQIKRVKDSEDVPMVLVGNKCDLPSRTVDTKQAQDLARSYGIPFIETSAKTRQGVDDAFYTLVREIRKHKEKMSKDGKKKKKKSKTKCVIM
pIC50: −log10 of the molar value.
Decision: pIC50 compared against 9; not below it gives true (1), below it gives false (0).

Query :: # bool: pIC50 of Cc1cc(N)nc(-c2c(Cl)c3c4c(nc(OCC56CCCN5CCC6)nc4c2F)N([C@H](C)c2cccnc2N)CCO3)c1C(F)(F)F (atropisomer, axis not shown) >= 9
Result :: true (1)

Query :: Determine whether this compound has pIC50 no lower than 9: Cc1cc(N)nc(-c2c(Cl)c3c4c(nc(OC[C@@H]5CC[C@H]6COCCN65)nc4c2F)N([C@H](C)c2cncc(N)c2)CCO3)c1C(F)(F)F (single isomer, unassigned) [Example 69a]
Result :: true (1)

Query :: Does the compound Cc1cc(N)nc(-c2cc3ncnc4c3c(c2Cl)OCCN4[C@H](C)c2cncc(N)c2)c1C(F)(F)F have recorded pIC50 that is 9 or more?
Result :: false (0)

Query :: Confirm if pIC50 reported for the compound Cc1cc(N)nc(-c2c(Cl)c3c4c(nc(OC[C@@]56CCN5CC(F)(F)C6)nc4c2F)N([C@H](C)c2ccnnc2N)CCO3)c1C(F)(F)F (atropisomer, axis not shown) [Example 77a] is 9 or above.
Result :: true (1)

Query :: Kindly determine if pIC50 recorded for C[C@H](c1cccnc1N)N1CCOc2c(Cl)c(-c3cccc4sc(N)nc34)c(F)c3nc(OC[C@@]45CCCN4C[C@H](F)C5)nc1c23 (atropisomer, axis not shown; (aS)) [Example 100b] is above or exactly 9.
Result :: true (1)

Query :: Determine whether this compound has pIC50 no lower than 9: Cc1cc(N)nc(-c2c(Cl)c3c4c(nc(OC[C@H]5C[C@@H]6C[N@@]5CCO6)nc4c2F)N([C@H](C)c2cccnc2N)CCO3)c1C(F)(F)F (atropisomer, axis not shown) [Example 92b]
Result :: false (0)

Query :: Textbook exercise: given the entry Cc1cc(N)nc(-c2c(Cl)c3c4c(nc(OCC5(C)CCOCC5)nc4c2F)N([C@H](C)c2cccnc2N)CCO3)c1C(F)(F)F (atropisomer, axis not shown) , state whether its pIC50 is greater than or equal to 9.
Result :: false (0)

Query :: pIC50 >= 9 for Cc1cc(N)nc(-c2c(Cl)c3c4c(nc(OC[C@@]56CCCN5C[C@H](F)C6)nc4c2F)N(Cc2cccnc2N)CCO3)c1C(F)(F)F (single isomer, unassigned) [Example 42b] ?
Result :: false (0)

Query :: Is it the case that Cc1cc(N)nc(-c2c(Cl)c3c4c(ncnc4c2F)N([C@H](C)c2cccnc2N)CCO3)c1C(F)(F)F (atropisomer, axis not shown) [Example 53b] has pIC50 reaching or exceeding 9?
Result :: false (0)

Query :: Exam item: decide whether the reported pIC50 for Cc1cc(N)nc(-c2c(Cl)c3c4c(nc(OC[C@]56CCN5CC(F)(F)C6)nc4c2F)N([C@H](C)c2cccnc2N)CCO3)c1C(F)(F)F (atropisomer, axis not shown) [Example 114b] is at least 9.
Result :: true (1)

Query :: Evaluate Cc1cc(N)nc(-c2c(Cl)c3c4c(nc(OC[C@]5(C)CC(F)(F)CN5C)nc4c2F)N([C@H](C)c2cccnc2N)CCO3)c1C(F)(F)F (atropisomer, axis not shown) [Example 122a] : pIC50 at minimum 9?
Result :: false (0)

Query :: Dear colleague, could you confirm whether COCCN1CCC(Oc2nc3c4c(c(Cl)c(-c5nc(N)cc(C)c5C(F)(F)F)c(F)c4n2)OCCN3[C@H](C)c2cccnc2N)CC1 (atropisomer, axis not shown) has pIC50 at or above 9?
Result :: false (0)

Query :: Determine whether this compound has pIC50 no lower than 9: CN1CCOc2c(Cl)c(-c3cccc4sc(N)nc34)cc3nc(OC[C@@]45CCCN4C[C@H](F)C5)nc1c23
Result :: false (0)

Query :: Check if pIC50 >= 9 (inclusive). Item: Cc1cc(N)nc(-c2c(Cl)c3c4c(nc(OCC56C[C@H](F)CN5C[C@H](F)C6)nc4c2F)N([C@H](C)c2cccnc2N)CCO3)c1C(F)(F)F (stereo partly drawn) [Example 98b]
Result :: true (1)

Query :: Hi, just wondering whether Cc1cc(N)nc(-c2c(Cl)c3c4c(nc(OCCN5CCN(C)CC5)nc4c2F)N([C@H](C)c2cccnc2N)CCO3)c1C(F)(F)F (atropisomer, axis not shown) shows pIC50 of 9 or higher.
Result :: true (1)

Query :: Exam item: decide whether the reported pIC50 for Cc1cc(N)nc(-c2c(Cl)c3c4c(nc(OC[C@H]5CC[C@@H]6COCCCN65)nc4c2F)N([C@H](C)c2cccnc2N)CCO3)c1C(F)(F)F (atropisomer, axis not shown; (aR)) [Example 120b] is at least 9.
Result :: true (1)

Query :: Check this compound for pIC50 at or above 9: C=C1CN2CCC[C@@]2(COc2nc3c4c(c(Cl)c(-c5cc(O)cc6ccccc56)cc4n2)OCCN3C)C1
Result :: false (0)

Query :: Quick check, pIC50 >= 9? C[C@H](c1cccnc1N)N1CCOc2c(Cl)c(-c3nc(N)ccc3C(F)(F)F)c(F)c3nc(OC[C@@]45CCCN4C[C@H](F)C5)nc1c23 (atropisomer, axis not shown; (aS)) [Example 108a]
Result :: true (1)

Query :: Decide: is the reported value of pIC50 for Cc1cc(N)nc(-c2c(Cl)c3c4c(nc(OC[C@@]56CCN5CC(F)(F)C6)nc4c2F)N([C@H](C)c2nccnc2N)CCO3)c1C(F)(F)F (single isomer, unassigned) [Example 162d] equal to or greater than 9?
Result :: false (0)

Query :: Can Cc1cc(N)nc(-c2c(Cl)c3c4c(nc(OC[C@@]56CCCN5C[C@H](F)C6)nc4c2F)N([C@H](C)c2cc(Cl)cnc2N)CCO3)c1C(F)(F)F be said to have pIC50 at or above 9?
Result :: true (1)

Just for reference, patent US20240383915A1 is where these values come from.
